molecular target: protein A (UniProt P38507 37-327); experiment: Octet HTX (ForteBio), HCAb on AHC sensor, 1:1 fit
quantity-name: Kd (nM)
# output: bare number, implied unit nM

Name the reported Kd value associated with the binder CNG-HSA-109 (VHH) VHH: KVQLVESGGGLVQPGNSLRLSCAASGFTFGSFGMSWVRQAPGKGPEWVSSISGSGSDTLYADSVKGRFTISRDNSKNTLYLQMNSLRPEDTAVYYCTIGGSLSRSSQGTLVTVSS
1.78

Name the reported Kd value associated with the binder CNG-HSA-116 (VHH) VHH: KVQLVESGGGLVQPGGSLRLSCAASGFTFSSFGMSWVRQAPGKGPEWVSSISGSGSDTLYADSVKGRFTISRDNSKNTLYLQMNSLRAEDTAVYYCTIGGSLRASSQGTLVTVSS
1.75

Name the reported Kd value associated with the binder CNG-HSA-112 (VHH) VHH: KVQLLESGGGLVQPGGSLRLSCAASGFTFPSFGMSWVRQAPGKGLEWVSSISGSGSDTLYADSVKGRFTISRDNAKTTLYLQMNSLRPEDTAVYYCTIGGSVSKSSRGTLVTVSS
3.44

Name the reported Kd value associated with the binder CNG-HSA-105 (VHH) VHH: EVQLLESGGGLVQPGGSLRLSCAASGFVFSSFGMSWVRQAPGKGLEWVSSISGSGSDTLYADSVKGRFTISRDNSKNTLYLQMNSLRPEDTAVYYCTIGGSLSRSSQGTLVTVSS
2.76

Name the reported Kd value associated with the binder CNG-HSA-110 (VHH) VHH: KVQLVESGGGLVQPGNSLRLSCAASGFTFSSFGMSWVRQAPGKGLEWVSSISGSGGDTLYADSAKGRFTISRDNSKNTLYLQMNSLRPEDTAVYYCTIGGSLSRSSQGTLVTVSS
3.67

Name the reported Kd value associated with the binder CNG-HSA-103 (VHH) VHH: KVQLVESGGGLVQPGGSLRLSCAASGFTFSSFGMTWVRQAPGKGLEWVSSISGSGSDTLYADSVRGRFTISRDNSKNTLYLQMNSLRPEDTAVYYCTIGGSLSPSSQGTLVTVSS
2.02
